Recorded values, source paper PMC10650850.

molecular target: AF9-AF4 (Homo sapiens); construct: human AF9 AHD domain (475–568); experiment: AlphaLisa assay, AF9-AF4 interaction; details: AF9 AHD, AF4 peptide
Please go through the items and note down their IC50.
One number for each entry, in µM.

Field IC50 (entry "Cl.O=C(NCC1CCNCC1)c1cc2cc(-c3ccc(N4CCCCC4)cc3)ccc2s1" ) reads 2.5

Field IC50 (entry "O=C(NCC1CCNCC1)c1cc2ccc(-c3ccc(N4CCCC4)cc3)cc2s1" ) reads 7.7

Field IC50 (entry "O=C(NCC1CCNCC1)c1cc2cc(-c3ccc(N4CCCC4)cc3)ccc2[nH]1" ) reads 1.9

Continuing:
Field IC50 (entry "Cl.O=C(NCC1CCNCC1)c1cc2ccc(-c3ccc(N4CCCCC4)cc3)cc2s1" ) reads 2.1

* * *

biological target: AF9-DOT1L interaction (Homo sapiens); construct: human AF9 AHD domain (475–568); made in house; host or cells: E. coli BL21(DE3); assay: AlphaLisa assay, AF9-DOT1L interaction; format: binding; conditions: MBP-protein 5 nM, biotinylated peptide 40 nM, 3 independent experiments with standard deviation, read-out: IC50 (μM) against the AF9-DOT1L interaction
Please go through the items and note down their IC50.
Answers are plain numbers, in µM.

Consider the following illustrative entries.
AF9-DOT1L interaction (Homo sapiens) assay, compound "O=C(NCC1CCNCC1)c1cc2cc(-c3ccc(N4CCCCC4)cc3)ccc2[nH]1" , recorded IC50 = 3.6

AF9-DOT1L interaction (Homo sapiens) assay, compound "O=C(NCC1CCNCC1)c1cc2ccc(-c3ccc(N4CCCC4)cc3)cc2s1" , recorded IC50 = 5.3

AF9-DOT1L interaction (Homo sapiens) assay, compound "O=C(NCC1CCNCC1)c1c[nH]c2cc(-c3ccc(N4CCCCC4)cc3)ccc12" , recorded IC50 = 4.5

AF9-DOT1L interaction (Homo sapiens) assay, compound "O=C(NCC1CCNCC1)c1cc2cc(-c3ccc(N4CCCC4)cc3)ccc2[nH]1" , recorded IC50 = 2.7

AF9-DOT1L interaction (Homo sapiens) assay, compound "O=C(NCC1CCNCC1)c1cc2ccc(-c3ccc(N4CCCC4)cc3)cc2[nH]1" , recorded IC50 = 2.8

Continuing:
AF9-DOT1L interaction (Homo sapiens) assay, compound "O=C(NCC1CCNCC1)c1cc2ccc(-c3ccc(N4CCCCC4)cc3)cc2[nH]1" , recorded IC50 = 3.3

* * *

tested on: panel of MLL-r leukemia and other cancer cells; assay: Antiproliferation assay (XTT), panel of MLL-r leukemia and other cancer cells; format: cell-based; settings: 168 h, MV4;11, Molm-13, NB4 and HL60 cells, 7 days, read-out: Antitumor activity EC50, span over MLL-r leukemia and AML cells
Please go through the items and note down their EC50.

Consider the following illustrative entries.
Field EC50 (entry "Cl.O=C(NCC1CCNCC1)c1cc2cc(-c3ccc(N4CCCCC4)cc3)ccc2s1" ) reads 5.1 to 9.4 µM

Field EC50 (entry "Cl.O=C(NCC1CCNCC1)c1coc2cc(-c3ccc(N4CCCCC4)cc3)ccc12" ) reads 9.7 to 21 µM

# evaluate next
Field EC50 (entry "O=C(NCC1CCNCC1)c1cc2ccc(-c3ccc(N4CCCC4)cc3)cc2s1" ) reads 8.7 to 26 µM

* * *

test system: NB4; assay: Antiproliferation assay (XTT), NB4; type: cell-based; conditions: Homo sapiens, NB-4, 168 h, 7 days incubation, read-out: Antitumor activity EC50, NB4;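 note: EC50 values in Micromolar not Nanomolar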
Exam item: assign true (1) to entries whose EC50 is below 10 µM and false (0) to entries at or above 10 µM. Note that a value of exactly 10 µM receives false (0).

Worked set:
Exam item: Determine whether this compound shows EC50 lower than 10 µM (ties excluded): O=C(NCC1CCNCC1)c1cc2cc(-c3ccc(N4CCCCC4)cc3)ccc2[nH]1 [Compound 15]
Marked response: false (0)

Exam item: Determine whether this compound shows EC50 lower than 10 µM (ties excluded): O=C(NCC1CCNCC1)c1cc2cc(-c3cn[nH]c3)ccc2[nH]1 [Compound 22]
Marked response: false (0)

Exam item: Determine whether this compound shows EC50 lower than 10 µM (ties excluded): O=C(NCC1CCNCC1)c1c[nH]c2cc(-c3ccc(N4CCCC4)cc3)ccc12 [Compound 12]
Marked response: false (0)

Continuing:
Exam item: Determine whether this compound shows EC50 lower than 10 µM (ties excluded): Cl.O=C(NCC1CCNCC1)c1coc2cc(-c3ccc(N4CCCCC4)cc3)ccc12 [Compound 57]
Marked response: false (0)

Exam item: Determine whether this compound shows EC50 lower than 10 µM (ties excluded): Cl.O=C(NCC1CCNCC1)c1cc2cc(-c3ccc(N4CCCCC4)cc3)ccc2s1 [Compound 50]
Marked response: true (1)

Exam item: Determine whether this compound shows EC50 lower than 10 µM (ties excluded): Cl.O=C(NCC1CCNCC1)c1cc2ccc(-c3ccc(N4CCCCC4)cc3)cc2s1 [Compound 24]
Marked response: true (1)

Exam item: Determine whether this compound shows EC50 lower than 10 µM (ties excluded): Cl.NC(=O)c1ccc(-c2ccc3cc(C(=O)NCC4CCNCC4)sc3c2)cc1 [Compound 37]
Marked response: false (0)

Exam item: Determine whether this compound shows EC50 lower than 10 µM (ties excluded): O=C(NCC1CCNCC1)c1c[nH]c2cc(-c3ccc(N4CCCCC4)cc3)ccc12 [Compound 2]
Marked response: false (0)

Exam item: Determine whether this compound shows EC50 lower than 10 µM (ties excluded): Cl.NCc1ccc(-c2ccc3cc(C(=O)NCC4CCNCC4)oc3c2)cc1 [Compound 72]
Marked response: false (0)

* * *

Molecular target: AF9-DOT1L interaction (Homo sapiens, UniProt P42568)
Construct: human AF9 AHD domain (475–568); made in house; host or cells: E. coli BL21(DE3)
Assay: AlphaLisa assay, AF9-DOT1L interaction
Assay type: binding
Settings: compound at 5 μM, read-out: % Inhibition at 5 μM against the AF9-DOT1L interaction
Text: An AlphaLisa assay we previously developed was used for compound screening for inhibitors of the AF9-DOT1L interaction. The PPI takes the DOT1L-peptide coated donor beads and AF9 AHD coated acceptor beads together. The donor beads are illuminated with a laser beam (680 nm) to generate singlet oxygen radicals, which activate the adjacent acceptor beads to produce luminescence at 615 nm. […]
Please go through the items and note down their inhibition at 5 µM.
Numbers only, in %.

Field inhibition at 5 µM (entry Cl.O=C(NCC1CCNCC1)c1cc2ccc(-c3ccc(C(=O)N4CCC(N5CCCC5)CC4)cc3)cc2s1 [Compound 34] ) reads 5

Below are 3 compounds. Give each one its inhibition at 5 µM.
1. CCN(CC)c1ccc(-c2ccc3cc(C(=O)NCC4CCNCC4)sc3c2)cc1 [Compound 27]
2. N#Cc1ccc(-c2ccc3cc(C(=O)NCC4CCNCC4)sc3c2)cc1F [Compound 42]
3. Cl.NC(=O)c1ccc(-c2ccc3cc(C(=O)NCC4CCNCC4)sc3c2)cc1 [Compound 37]

Marked response:
[25, 26, 0]

* * *

Please go through the items and note down their inhibition at 5 µM.
target: AF9-DOT1L interaction (Homo sapiens, UniProt P42568); construct: human AF9 AHD domain (475–568); made in house; host or cells: E. coli BL21(DE3); assay: AlphaLisa assay, AF9-DOT1L interaction; format: binding; details: compound at 5 μM, read-out: % Inhibition at 5 μM against the AF9-DOT1L interaction
Give bare numbers, in %.

Field inhibition at 5 µM (entry "O=C(NCC1CCNCC1)c1cc2ccc(-c3ccc(C(=O)N4CCCCC4)cc3)cc2o1" ) reads 0

Field inhibition at 5 µM (entry "O=C(NCC1CCNCC1)c1cc2ccc(-c3ccc4c(c3)OCCO4)cc2o1" ) reads 33

Continuing:
Field inhibition at 5 µM (entry "Cc1ccc(-c2ccc3cc(C(=O)NCC4CCNCC4)sc3c2)cc1" ) reads 47

* * *

target: AF9-DOT1L interaction (Homo sapiens); construct: human AF9 AHD domain (475–568); made in house; host or cells: E. coli BL21(DE3); assay: AlphaLisa assay, AF9-DOT1L interaction; assay type: binding; details: MBP-protein 5 nM, biotinylated peptide 40 nM, 3 independent experiments with standard deviation, read-out: IC50 (μM) against the AF9-DOT1L interaction
Please go through the items and note down their IC50.
Give bare numbers, in µM.

Field IC50 (entry "O=C(NCC1CCNCC1)c1cc2ccc(Nc3ccc(N4CCCCC4)cc3)cc2o1" ) reads 4.6

Field IC50 (entry "O=C(NCC1CCNCC1)c1c[nH]c2cc(-c3ccc(N4CCCC4)cc3)ccc12" ) reads 2.9

# evaluate next
Field IC50 (entry "Cl.O=C(NCC1CCNCC1)c1cc2cc(-c3ccc(N4CCCCC4)cc3)ccc2s1" ) reads 2.5

* * *

Please go through the items and note down their inhibition at 5 µM.
Biological target: AF9-DOT1L interaction (Homo sapiens, UniProt P42568)
Construct: human AF9 AHD domain (475–568); made in house; host or cells: E. coli BL21(DE3)
Sequence (P42568 475-568): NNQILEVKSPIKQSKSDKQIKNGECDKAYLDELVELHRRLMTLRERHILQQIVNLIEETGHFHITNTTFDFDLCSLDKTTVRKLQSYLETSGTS
Experiment: AlphaLisa assay, AF9-DOT1L interaction
Assay type: binding
Conditions: compound at 5 μM, read-out: % Inhibition at 5 μM against the AF9-DOT1L interaction
Give bare numbers, in %.

Below are 2 compounds. Give each one its inhibition at 5 µM.
1. O=C(NCC1CCNCC1)c1cc2ccc(-c3ccc(CO)cc3)cc2s1
2. O=C(NCC1CCNCC1)c1cc2ccc(-c3ccc(N4CCNCC4)cc3)cc2o1

Marked response:
[0, 38]

Below are 3 compounds. Give each one its inhibition at 5 µM.
1. O=C(NCC1CCNCC1)c1cc2ccc(-c3ccsc3)cc2[nH]1
2. CC(C)(C)c1ccc(-c2ccc3[nH]c(C(=O)NCC4CCNCC4)cc3c2)cc1
3. O=C(NCC1CCNCC1)c1cc2ccc(N3CCC(N4CCCCC4)CC3)cc2s1

Marked response:
[10, 13, 14]

Below are 4 compounds. Give each one its inhibition at 5 µM.
1. CS(=O)(=O)c1ccc(-c2ccc3cc(C(=O)NCC4CCNCC4)oc3c2)cc1
2. CC(C)(C)c1cccc(-c2ccc3cc(C(=O)NCC4CCNCC4)[nH]c3c2)c1
3. CC(=O)Nc1ccc(-c2ccc3cc(C(=O)NCC4CCNCC4)sc3c2)cc1
4. O=C(NCC1CCNCC1)c1cc2ccc(-c3cccc(-c4ccccc4)c3)cc2o1

Marked response:
19
17
0
33
